Measured values drawn from patent US11191762B2 for this set.

Answer each item with its documented pEC50.
molecular target: human APJ receptor (Homo sapiens (Human)); test: biochemical; type: biochemical; settings: [35S]GTPγS binding, membranes from CHO cells stably expressing human APJ receptor; read-out: Activity hAPJ SPA EC50 IP
Sequence (P35414 whole entry): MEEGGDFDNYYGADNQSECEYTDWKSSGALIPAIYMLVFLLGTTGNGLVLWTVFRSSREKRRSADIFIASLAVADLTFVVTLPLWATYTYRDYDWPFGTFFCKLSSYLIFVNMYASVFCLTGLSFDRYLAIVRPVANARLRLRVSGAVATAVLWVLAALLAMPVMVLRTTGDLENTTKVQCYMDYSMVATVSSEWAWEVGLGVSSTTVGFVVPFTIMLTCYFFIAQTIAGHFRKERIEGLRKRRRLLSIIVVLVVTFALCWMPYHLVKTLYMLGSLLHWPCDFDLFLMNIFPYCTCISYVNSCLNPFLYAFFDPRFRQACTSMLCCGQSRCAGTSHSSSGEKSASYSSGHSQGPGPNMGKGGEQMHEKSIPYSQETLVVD
One number for each entry, as −log10 of the molar value.

Worked set:
{"smiles-string": "COCc1nnc(NS(=O)(=O)[C@@H](C)[C@@H](OC(C)C)c2ncc(C)cn2)n1-c1c(F)cccc1F", "pEC50": 6.62}
{"smiles-string": "COCc1nnc(NS(=O)(=O)[C@@H](C)[C@H](OC)c2ncc(Cl)cn2)n1C(C)C", "pEC50": 5.92}

// for each compound below, give its pEC50
1. COc1cccc(OC)c1-n1c(CN2CCCC2=O)nnc1NS(=O)(=O)[C@@H](C)[C@H](C)c1ncc(Cl)cn1
2. COc1cccc(OC)c1-n1c(Cc2ccccc2)nnc1NS(=O)(=O)[C@@H](C)[C@H](OC)c1ncc(C)cn1
3. CO[C@H](c1ncc(Cl)cn1)[C@H](C)S(=O)(=O)Nc1nnc(CC2CCC2)n1C1CCOCC1

A:
1: 6.49; 2: 6.52; 3: 6.43

Q: Param item = CCC(CC)n1c(COC)nnc1NS(=O)(=O)[C@@H](C)[C@H](OC)c1ncc(Cl)cn1 ; retrieve measured pEC50.
A: 6.77
